Target: sigma-2 binding site (Cavia porcellus)
Construct: Guinea pig whole membrane preparations (P2 microsomal fraction); from tissue; host or cells: guinea pig membranes (P2 microsomal fraction), as described by Weber et al; brain inferred from the sister test b489
Assay: biochemical
Set-up: species or system guinea pig
Conditions: SIGMA-2 KI vs. 3H-DTG + PENTAZOCINE MEAN
Mark rule met only for Ki values smaller than 1 µM; exact matches and larger values are rule not met.

| molecule | class.assignment |
| --- | --- |
| COc1ccc2c(c1)[C@]13CCCC[C@@H]1[C@H](C2)N(C)CC3 [Dextromethorphan, reference compound] | rule not met |
| CCCN1CCC[C@@H](c2cccc(O)c2)C1 [(-)3-PPP, reference compound] | rule not met |
| CC(C)N(CCNC(=O)CN1CCCC1=O)C(C)C [Pramiracetam, reference compound] | rule not met |
| CN1CCN(CCCN2c3ccccc3Sc3ccc(C(F)(F)F)cc32)CC1 [Trifluperizine, reference compound] | rule met |
| OCCN1CCN(CCCN2c3ccccc3Sc3ccc(Cl)cc32)CC1 [Perphenazine, reference compound] | rule met |
| CC(C)(C)[C@]1(O)CCN2C[C@H]3c4ccccc4CCc4cccc(c43)[C@@H]2C1 [(+)Butaclamol, reference compound] | rule not met |
| CC(C(O)c1ccc(O)cc1)N1CCC(Cc2ccccc2)CC1 (stereo not shown) [Ifenprodil, reference compound] | rule met |

###

Target: sigma receptor
Assay: Sigma receptor binding, [^3 H]DTG, brain membranes (both sigma-1 and sigma-2 sites)
Set-up: species or system guinea pig
Settings: running text, Examples 5 and 6; read-out: sigma receptor Ki
pKi: −log10 of the molar value. Counter-ions that a name gives are not always drawn.
Let's look at some molecules and their measured pKi.

| molecule | pKi |
| --- | --- |
| CCCN(C)CCCCCc1ccccc1 | 8.62 |
| c1ccc(CCCCCNCCc2ccccc2)cc1 | 8.62 |
| c1ccc(CCCCCNCC2CCCCC2)cc1 | 8.92 |
| CCCCCCN(C)CCc1ccccc1 [Compound 130, Oxalate] | 8.42 |
| O=C(O)C(=O)O.c1ccc(CCCCCNc2ccccc2)cc1 | 7.92 |
| CCCCCCN(C)CCC [Compound 131, Oxalate] | 7.35 |
| c1ccc(CCCNCCCC2CCCCC2)cc1 [Compound 92, Hydrochloride] | 8.62 |
| c1ccc(CNCCCCCC2CCCCC2)cc1 | 8.47 |
| NCCCCCC1CCCCC1.O=C(O)C(=O)O [Compound 126, 5-Cyclohexylpentylamine Hydrogen Oxalate] | 6.70 |
| c1ccc(CCCNCCc2ccccc2)cc1 | 7.72 |
| CN(C)CCCCCC1CCCCC1 | 8.59 |
| CNCCCCCC1CCCCC1 | 8.00 |
| CN(C)CCCCCc1ccccc1 | 7.46 |

###

Target: sigma receptor
Experiment: Sigma receptor binding, [^3 H]DTG, brain membranes (both sigma-1 and sigma-2 sites)
Design: species or system guinea pig
Settings: Table 6; [^3 H]DTG
endpoint.name: log10(IC50) (log10 of the value in nM)

| compound | subject.of.test | log10(IC50) |
| --- | --- | --- |
| CCCC(Cc1ccccc1)NCCCc1ccccc1 (centres unmarked) | sigma receptor | 1.41 |
| CCCNC1CCc2ccccc2C1 (centres unmarked) | sigma receptor | 2.88 |
| CN(CCCCCC1CCCCC1)CC1CCCCC1.Cl [Compound 152, Hydrochloride] | sigma receptor | 0.25 |
| O=C(CCCCN1CCC(c2ccccc2)CC1)c1ccc(F)cc1 | sigma receptor | -0.05 |
| c1ccc(CCCCCN2CC3CCC(CC3)C2)cc1 | sigma receptor | 0.03 |

###

Target: sigma receptor
Experiment: Sigma receptor binding, [^3 H]DTG, brain membranes (both sigma-1 and sigma-2 sites)
Design: species or system guinea pig
Details: Table 6; [^3 H]DTG
Let's look at some compounds and their measured log10 IC50.
endpoint.name: log10 IC50 (log10 of the value in nM)

| compound | log10 IC50 |
| --- | --- |
| c1ccc(C2CCNCC2)cc1 | 3.31 |
| CCC[C@@H](Cc1ccccc1)N(C)CCCc1ccccc1 | 1.00 |
| COc1cccc(C(=O)CCCCN2CCCCC2)c1 | 1.36 |
| O=C1c2ccccc2C(=O)N1CCCCN1CCN(Cc2ccccc2)CC1 | 1.33 |
| Oc1ccccc1CCNCCCCCc1ccccc1 | 1.24 |
| CN(C)CCCCCc1ccccc1 | 1.59 |
| C[C@@H](Cc1ccccc1)N(C)CCCc1ccc2ccccc2c1 | 0.51 |
| O=C(CCCCN1CCC(c2ccc(F)cc2)CC1)c1ccc(Cl)cc1 | 0.03 |
| Clc1ccc(CCCCCN2CCC(c3ccccc3)CC2)cc1 | 0.29 |
| O=C(O)C(=O)O.c1ccc(CCCCCNc2ccccc2)cc1 | 1.13 |
| c1ccc(CCCCCN2CCN(Cc3ccccc3)CC2)cc1 | 0.36 |
| COc1ccc(OC)c(CC(C)NCCCCc2ccccc2)c1 (centres unmarked) | 1.86 |
| O=C1c2ccccc2C(=O)N1CCCN1CCN(c2ccccc2)CC1 | 2.15 |
| CN1CCN(CC/C=C/c2ccccc2)CC1 | 1.88 |
| c1ccc(CNCc2ccccc2)cc1 | 2.26 |
| c1ccc(CCCCCNCc2ccccc2)cc1 | 0.32 |
| c1ccc(CCCCCN2CCN(CCCCCc3ccccc3)CC2)cc1 | 0.43 |
| CN1CCC(OC(c2ccccc2)c2ccccc2)CC1 | 2.82 |
| CCN(CC)CCOC(=O)C(c1ccccc1)c1ccccc1 | 1.70 |
| CN(CCc1ccccc1)CCc1ccccc1 | 1.58 |

###

Let's look at some compounds and their measured Ki.
Biological target: sigma-2 binding site (Cavia porcellus)
Construct: Guinea pig whole membrane preparations (P2 microsomal fraction); from tissue; host or cells: guinea pig membranes (P2 microsomal fraction), as described by Weber et al; brain inferred from the sister test b489
Sequence (H0V073 1-176): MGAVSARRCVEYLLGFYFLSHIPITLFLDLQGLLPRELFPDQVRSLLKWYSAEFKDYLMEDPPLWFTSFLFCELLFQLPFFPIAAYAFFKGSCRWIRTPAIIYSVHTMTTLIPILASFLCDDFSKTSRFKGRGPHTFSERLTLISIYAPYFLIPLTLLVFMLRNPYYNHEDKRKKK
Assay: biochemical
Set-up: species or system guinea pig
Conditions: Example 9; read-out: sigma-2 binding affinity
endpoint.name: Ki

| compound | value |
| --- | --- |
| C[C@H](Cc1ccccc1)NCCCc1ccccc1 | 0.06 µM |
| CC(Cc1cccc2ccccc12)NCCCc1ccccc1 (racemic) | 0.15 µM |

###

Target: 5-HT1A receptor (Rattus norvegicus, UniProt P19327)
Sequence (P19327 whole entry): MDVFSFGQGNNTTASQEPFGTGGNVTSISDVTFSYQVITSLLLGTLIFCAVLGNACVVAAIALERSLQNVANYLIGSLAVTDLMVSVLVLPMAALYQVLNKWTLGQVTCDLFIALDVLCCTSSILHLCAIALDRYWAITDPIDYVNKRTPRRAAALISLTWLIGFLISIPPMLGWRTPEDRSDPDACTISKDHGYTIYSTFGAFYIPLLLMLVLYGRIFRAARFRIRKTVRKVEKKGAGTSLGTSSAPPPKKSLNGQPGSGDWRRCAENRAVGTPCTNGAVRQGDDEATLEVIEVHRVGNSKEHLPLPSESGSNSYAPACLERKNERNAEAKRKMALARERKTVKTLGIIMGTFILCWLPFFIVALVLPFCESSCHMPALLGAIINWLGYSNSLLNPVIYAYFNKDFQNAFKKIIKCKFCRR
Experiment: biochemical
Format: binding
Set-up: 47: 529-540 (1986); from tissue; host or cells: brain tissue, inferred from the cited method (rat frontal cortex)
Details: Table 6; read-out: 5HT-1A (nM) MEAN
Counter-ions that a name gives are not always drawn.
Mark fulfilled only for IC50 values smaller than 600 nM; exact matches and larger values are not fulfilled.

| compound | class.assignment |
| --- | --- |
| C[C@@H](Cc1ccccc1)N(C)CCCc1ccc2ccccc2c1 | not fulfilled |
| c1ccc(CCCCCCNCCCc2ccccc2)cc1 | fulfilled |
| c1ccc(CCCCCNCCCc2ccccc2)cc1 | fulfilled |
| c1ccc(CCCNC2CCCc3ccccc3C2)cc1 (stereo not shown) | fulfilled |
| CC(C)=CCN(C)[C@@H](C)Cc1ccccc1 | not fulfilled |
| c1ccc(CCCCCCCNCc2ccccc2)cc1 | not fulfilled |
| c1ccc(CCCCNCCc2ccccc2)cc1 | fulfilled |
| c1ccc2cc(CCCNCCCc3ccc4ccccc4c3)ccc2c1 | not fulfilled |
| Clc1ccc(N2CCN(CCCc3ccccc3)CC2)cc1 | fulfilled |
| c1ccc(CCCCCNCCCCc2ccccc2)cc1 | fulfilled |
| CCCc1ccc(CC(C)N(C)CCCc2ccccc2)cc1 (stereo not shown) | fulfilled |
| C[C@@H](Cc1ccccc1)N(C)CCCc1ccccc1 | not fulfilled |
| CCCN(C)CCCCCc1ccccc1 | not fulfilled |
| c1ccc(CCCCCN2CCC(c3ccccc3)CC2)cc1 | fulfilled |
| c1ccc(CCCCNCCCc2ccccc2)cc1 | fulfilled |
| c1ccc(CCCCCNCc2ccccc2)cc1 | not fulfilled |
| CCCc1ccc(CC(C)NCCCc2ccccc2)cc1 (stereo not shown) | fulfilled |
| c1ccc(CCCNCCCC2CCCCC2)cc1 [Compound 92, Hydrochloride] | fulfilled |

###

Molecular target: 5-HT1A receptor (Rattus norvegicus, UniProt P19327)
Assay: biochemical
Assay type: binding
Set-up: 47: 529-540 (1986); from tissue; host or cells: brain tissue, inferred from the cited method (rat frontal cortex)
Conditions: Table 6; read-out: 5HT-1A (nM) MEAN
Mark fulfilled only for IC50 values smaller than 800 nM; exact matches and larger values are not fulfilled.

| compound | class.assignment |
| --- | --- |
| c1ccc(CCCCN2CCC(c3ccccc3)CC2)cc1 [Compound 81] | fulfilled |
| c1ccc(CCCCNCCCCc2ccccc2)cc1 [Compound 73] | fulfilled |
| COc1cc(CC(C)NCCCCc2ccccc2)c(OC)cc1Br (stereo not drawn) [Compound 66] | fulfilled |
| O=C1c2ccccc2C(=O)N1CCCCCN1CCN(c2ccccc2)CC1 [Compound 98] | fulfilled |
| c1ccc(CCCCCCCNCCc2ccccc2)cc1 [Compound 91, N-(7-phenylheptyl)phenethylamine] | fulfilled |
| c1ccc(CCCCCNCCc2ccccc2)cc1 [Compound 89, N-(5-phenylpentyl)phenethylamine] | fulfilled |
| CC(C)CCN(C)[C@@H](C)Cc1ccccc1 [Compound 115] | not fulfilled |
| OC1(Cc2ccccc2)CCN(CCCCCc2ccccc2)CC1 [Compound 118] | not fulfilled |
